Values compiled from patent US10562947B2.

- EXPERIMENTAL SYSTEM: Tec(h) activated (Homo sapiens, UniProt P42680)
- Sequence (P42680 1-631): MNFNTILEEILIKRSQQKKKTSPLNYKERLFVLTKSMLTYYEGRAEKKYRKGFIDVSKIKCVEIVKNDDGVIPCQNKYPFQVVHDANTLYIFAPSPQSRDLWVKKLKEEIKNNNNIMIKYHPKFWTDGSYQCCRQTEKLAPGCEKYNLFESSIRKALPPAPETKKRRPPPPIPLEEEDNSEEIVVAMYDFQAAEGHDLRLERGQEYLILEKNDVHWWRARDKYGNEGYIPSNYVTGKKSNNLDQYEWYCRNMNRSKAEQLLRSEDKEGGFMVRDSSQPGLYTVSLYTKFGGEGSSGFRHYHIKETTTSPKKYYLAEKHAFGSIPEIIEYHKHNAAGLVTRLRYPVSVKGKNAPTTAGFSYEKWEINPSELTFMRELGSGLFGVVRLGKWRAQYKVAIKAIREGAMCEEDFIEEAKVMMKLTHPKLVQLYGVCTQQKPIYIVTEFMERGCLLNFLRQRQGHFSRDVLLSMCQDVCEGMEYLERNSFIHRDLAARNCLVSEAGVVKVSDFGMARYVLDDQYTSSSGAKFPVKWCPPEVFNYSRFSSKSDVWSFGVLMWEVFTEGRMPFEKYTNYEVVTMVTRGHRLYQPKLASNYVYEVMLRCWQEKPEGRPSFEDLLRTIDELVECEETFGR
- METHOD DESCRIPTION: Kinase Profiling Assay
- Assay type: biochemical
- DETAILS: 100 μM peptide
MEASUREMENT LABEL: Tec(h) activated % activity (%)

* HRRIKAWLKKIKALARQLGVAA (Mammalian) [MMI-0500] | 33
* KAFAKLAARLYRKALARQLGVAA [MMI-0400] | 29
* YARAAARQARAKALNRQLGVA (Mammalian) [MMI-0200] | 77
* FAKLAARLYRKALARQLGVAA [MMI-0300] | 56

---

- EXPERIMENTAL SYSTEM: mTOR/FKBP12(h) (Homo sapiens, UniProt P42345)
- Sequence (P42345 1362-2549 limits assumed): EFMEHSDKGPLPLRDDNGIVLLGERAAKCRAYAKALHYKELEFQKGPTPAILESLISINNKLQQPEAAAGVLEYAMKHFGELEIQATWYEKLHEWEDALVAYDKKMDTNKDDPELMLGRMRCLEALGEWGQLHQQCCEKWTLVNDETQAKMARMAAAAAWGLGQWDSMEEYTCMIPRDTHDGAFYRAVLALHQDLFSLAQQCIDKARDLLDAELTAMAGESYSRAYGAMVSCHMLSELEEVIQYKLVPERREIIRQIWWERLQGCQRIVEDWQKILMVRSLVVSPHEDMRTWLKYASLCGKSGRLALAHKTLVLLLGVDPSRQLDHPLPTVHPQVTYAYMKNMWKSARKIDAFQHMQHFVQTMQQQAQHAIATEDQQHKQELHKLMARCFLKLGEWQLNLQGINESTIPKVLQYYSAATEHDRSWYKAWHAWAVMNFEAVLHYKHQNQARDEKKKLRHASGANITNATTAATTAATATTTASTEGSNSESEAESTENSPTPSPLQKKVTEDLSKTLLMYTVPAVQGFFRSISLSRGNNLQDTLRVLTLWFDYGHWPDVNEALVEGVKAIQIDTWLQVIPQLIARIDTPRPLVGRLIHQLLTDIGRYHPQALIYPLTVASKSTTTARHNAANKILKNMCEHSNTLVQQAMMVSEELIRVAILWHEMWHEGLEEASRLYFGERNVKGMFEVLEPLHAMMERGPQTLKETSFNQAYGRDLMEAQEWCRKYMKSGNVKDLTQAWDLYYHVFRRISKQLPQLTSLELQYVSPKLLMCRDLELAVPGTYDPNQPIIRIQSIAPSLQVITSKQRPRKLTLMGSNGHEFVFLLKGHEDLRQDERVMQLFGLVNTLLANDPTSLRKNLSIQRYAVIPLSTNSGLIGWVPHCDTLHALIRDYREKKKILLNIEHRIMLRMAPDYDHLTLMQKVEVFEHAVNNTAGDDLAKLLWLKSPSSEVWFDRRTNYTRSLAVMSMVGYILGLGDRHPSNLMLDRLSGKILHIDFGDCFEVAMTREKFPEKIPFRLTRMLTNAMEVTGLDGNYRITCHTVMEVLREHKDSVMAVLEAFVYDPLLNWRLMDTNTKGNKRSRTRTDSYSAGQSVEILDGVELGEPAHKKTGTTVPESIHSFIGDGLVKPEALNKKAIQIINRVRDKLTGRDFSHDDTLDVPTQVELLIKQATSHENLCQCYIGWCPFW
- METHOD DESCRIPTION: Kinase Profiling Assay
- Format: biochemical
- DETAILS: 100 μM peptide
MEASUREMENT LABEL: mTOR/FKBP12(h) % activity (%)

* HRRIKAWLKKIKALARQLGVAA (Mammalian) [MMI-0500] | 140
* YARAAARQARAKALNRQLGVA (Mammalian) [MMI-0200] | 118
* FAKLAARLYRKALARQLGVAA [MMI-0300] | 145
* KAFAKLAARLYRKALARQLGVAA [MMI-0400] | 125

---

- EXPERIMENTAL SYSTEM: CK2(h) (Homo sapiens, UniProt P68400)
- Sequence (P68400 whole entry): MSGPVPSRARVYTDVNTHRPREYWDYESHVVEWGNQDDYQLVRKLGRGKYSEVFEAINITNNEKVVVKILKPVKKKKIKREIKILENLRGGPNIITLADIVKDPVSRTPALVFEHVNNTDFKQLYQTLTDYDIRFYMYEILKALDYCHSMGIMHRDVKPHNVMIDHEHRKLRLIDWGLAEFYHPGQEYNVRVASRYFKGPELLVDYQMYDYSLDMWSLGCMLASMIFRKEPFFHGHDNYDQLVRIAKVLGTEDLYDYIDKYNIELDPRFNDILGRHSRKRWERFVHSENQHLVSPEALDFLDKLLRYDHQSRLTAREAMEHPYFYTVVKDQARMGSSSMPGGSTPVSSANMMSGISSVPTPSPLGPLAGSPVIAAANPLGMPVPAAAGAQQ
- Sequence (P67870 whole entry partner): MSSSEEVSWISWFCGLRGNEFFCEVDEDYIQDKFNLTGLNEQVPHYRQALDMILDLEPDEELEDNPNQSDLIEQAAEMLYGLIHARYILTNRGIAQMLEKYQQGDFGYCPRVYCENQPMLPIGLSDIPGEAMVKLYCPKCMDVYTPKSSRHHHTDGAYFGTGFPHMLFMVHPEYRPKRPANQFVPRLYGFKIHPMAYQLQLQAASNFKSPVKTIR
- METHOD DESCRIPTION: Kinase Profiling Assay
- Assay type: biochemical
- DETAILS: 100 μM peptide
Listed below: CK2(h) % activity values for each entry.
MEASUREMENT LABEL: CK2(h) % activity (%)

- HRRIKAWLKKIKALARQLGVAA (Mammalian) [MMI-0500]: 93
- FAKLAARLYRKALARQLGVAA [MMI-0300]: 90
- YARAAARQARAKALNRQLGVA (Mammalian) [MMI-0200]: 83
- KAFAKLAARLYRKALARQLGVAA [MMI-0400]: 101

---

- EXPERIMENTAL SYSTEM: Pim-2(h) (Homo sapiens)
- Sequence (Q9P1W9 whole entry): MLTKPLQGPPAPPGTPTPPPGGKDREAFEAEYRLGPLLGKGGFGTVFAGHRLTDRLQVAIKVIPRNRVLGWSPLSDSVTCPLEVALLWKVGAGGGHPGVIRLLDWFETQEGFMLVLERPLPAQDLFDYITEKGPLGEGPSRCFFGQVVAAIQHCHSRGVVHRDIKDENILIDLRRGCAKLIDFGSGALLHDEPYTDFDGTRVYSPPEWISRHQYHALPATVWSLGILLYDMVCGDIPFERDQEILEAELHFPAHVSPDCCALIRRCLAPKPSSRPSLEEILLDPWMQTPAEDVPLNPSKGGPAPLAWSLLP
- METHOD DESCRIPTION: Kinase Profiling Assay
- Assay type: biochemical
- DETAILS: 100 μM peptide
MEASUREMENT LABEL: Pim-2(h) % activity (%)

- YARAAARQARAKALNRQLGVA (Mammalian) [MMI-0200]: 74
- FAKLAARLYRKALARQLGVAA [MMI-0300]: 76
- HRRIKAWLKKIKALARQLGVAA (Mammalian) [MMI-0500]: 46
- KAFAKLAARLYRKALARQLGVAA [MMI-0400]: 92

---

- EXPERIMENTAL SYSTEM: cSRC(h) (Homo sapiens)
- METHOD DESCRIPTION: Kinase Profiling Assay
- Assay type: biochemical
- DETAILS: 100 μM peptide
MEASUREMENT LABEL: cSRC(h) % activity (%)

- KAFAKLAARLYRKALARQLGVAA [MMI-0400]: 14
- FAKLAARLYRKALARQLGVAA [MMI-0300]: 26
- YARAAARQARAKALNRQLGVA (Mammalian) [MMI-0200]: 32
- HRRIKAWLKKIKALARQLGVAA (Mammalian) [MMI-0500]: 30

---

- EXPERIMENTAL SYSTEM: NEK11(h) (Homo sapiens, UniProt Q8NG66)
- Sequence (Q8NG66 1-645): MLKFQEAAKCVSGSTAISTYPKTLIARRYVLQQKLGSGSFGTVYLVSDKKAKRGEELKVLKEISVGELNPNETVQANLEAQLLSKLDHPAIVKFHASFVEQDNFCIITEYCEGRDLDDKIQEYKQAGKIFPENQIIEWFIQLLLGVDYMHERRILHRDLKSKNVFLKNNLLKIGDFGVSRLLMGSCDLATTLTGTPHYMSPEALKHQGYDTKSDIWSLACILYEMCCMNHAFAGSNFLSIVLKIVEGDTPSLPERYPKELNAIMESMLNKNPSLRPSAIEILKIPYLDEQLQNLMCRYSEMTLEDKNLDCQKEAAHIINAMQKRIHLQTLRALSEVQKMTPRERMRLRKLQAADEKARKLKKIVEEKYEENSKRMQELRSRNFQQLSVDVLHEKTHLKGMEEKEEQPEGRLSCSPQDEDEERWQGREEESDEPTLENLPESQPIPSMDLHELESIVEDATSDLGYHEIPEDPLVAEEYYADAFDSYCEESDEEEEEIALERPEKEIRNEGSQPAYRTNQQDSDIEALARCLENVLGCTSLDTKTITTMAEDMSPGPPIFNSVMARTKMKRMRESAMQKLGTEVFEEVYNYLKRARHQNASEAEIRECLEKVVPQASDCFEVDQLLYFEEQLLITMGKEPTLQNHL
- METHOD DESCRIPTION: Kinase Profiling Assay
- Format: biochemical
- DETAILS: 100 μM peptide
- Procedure: Every kinase activity measurement was conducted in duplicate. In addition to determining the IC50 of the compound, the specificity of MK2 inhibitory peptides was assessed by examining activities of all 266 human kinases available for testing in the Millipore kinase profiling service (Table 1).
MEASUREMENT LABEL: NEK11(h) % activity (%)

* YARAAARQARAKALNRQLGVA (Mammalian) [MMI-0200] | 95
* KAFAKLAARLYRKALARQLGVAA [MMI-0400] | 33
* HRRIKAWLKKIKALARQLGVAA (Mammalian) [MMI-0500] | 2
* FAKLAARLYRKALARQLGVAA [MMI-0300] | 53

---

- EXPERIMENTAL SYSTEM: Pim-1(h) (Homo sapiens)
- Sequence (P11309 whole entry): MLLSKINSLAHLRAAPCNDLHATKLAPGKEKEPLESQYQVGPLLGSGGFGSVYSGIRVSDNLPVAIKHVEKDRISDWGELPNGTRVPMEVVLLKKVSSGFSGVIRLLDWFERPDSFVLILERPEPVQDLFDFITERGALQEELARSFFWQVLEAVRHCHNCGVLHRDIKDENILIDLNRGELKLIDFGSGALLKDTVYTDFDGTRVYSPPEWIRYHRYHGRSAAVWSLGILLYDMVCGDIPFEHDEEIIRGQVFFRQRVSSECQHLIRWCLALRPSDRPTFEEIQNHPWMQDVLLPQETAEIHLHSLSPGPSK
- METHOD DESCRIPTION: Kinase Profiling Assay
- Assay type: biochemical
- DETAILS: 100 μM peptide
MEASUREMENT LABEL: Pim-1(h) % activity (%)

• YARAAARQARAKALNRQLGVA (Mammalian) [MMI-0200] = 18
• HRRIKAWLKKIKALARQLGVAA (Mammalian) [MMI-0500] = 0
• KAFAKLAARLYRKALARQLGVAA [MMI-0400] = 7
• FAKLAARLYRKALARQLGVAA [MMI-0300] = 8

---

- EXPERIMENTAL SYSTEM: Hck(h) activated (Homo sapiens, UniProt P08631)
- Construct: purchased Millipore
- Sequence (P08631 whole entry): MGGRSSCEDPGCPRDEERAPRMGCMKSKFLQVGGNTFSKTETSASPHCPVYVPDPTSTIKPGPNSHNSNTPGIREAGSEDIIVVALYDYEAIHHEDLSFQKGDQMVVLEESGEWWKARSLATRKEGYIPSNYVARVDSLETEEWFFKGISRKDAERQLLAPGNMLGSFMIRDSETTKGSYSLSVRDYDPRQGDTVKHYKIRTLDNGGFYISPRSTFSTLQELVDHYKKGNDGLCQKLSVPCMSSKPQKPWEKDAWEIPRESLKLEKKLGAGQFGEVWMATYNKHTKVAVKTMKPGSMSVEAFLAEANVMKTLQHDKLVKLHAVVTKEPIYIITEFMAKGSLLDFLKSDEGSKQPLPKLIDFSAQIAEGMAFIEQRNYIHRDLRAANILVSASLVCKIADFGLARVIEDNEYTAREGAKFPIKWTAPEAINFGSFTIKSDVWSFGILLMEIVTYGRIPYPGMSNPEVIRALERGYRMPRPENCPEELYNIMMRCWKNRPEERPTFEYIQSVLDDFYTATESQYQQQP
- METHOD DESCRIPTION: Kinase Profiling Assay
- Type: biochemical
- DETAILS: 100 μM peptide
MEASUREMENT LABEL: Hck(h) activated % activity (%)

* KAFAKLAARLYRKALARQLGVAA [MMI-0400] | 81
* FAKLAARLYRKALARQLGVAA [MMI-0300] | 82
* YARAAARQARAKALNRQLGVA (Mammalian) [MMI-0200] | 100
* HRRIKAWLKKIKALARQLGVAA (Mammalian) [MMI-0500] | 67

---

Listed below: ALK4(h) % activity values for each entry.
- EXPERIMENTAL SYSTEM: ALK4(h) (Homo sapiens, UniProt P36896)
- Sequence (P36896 24-505): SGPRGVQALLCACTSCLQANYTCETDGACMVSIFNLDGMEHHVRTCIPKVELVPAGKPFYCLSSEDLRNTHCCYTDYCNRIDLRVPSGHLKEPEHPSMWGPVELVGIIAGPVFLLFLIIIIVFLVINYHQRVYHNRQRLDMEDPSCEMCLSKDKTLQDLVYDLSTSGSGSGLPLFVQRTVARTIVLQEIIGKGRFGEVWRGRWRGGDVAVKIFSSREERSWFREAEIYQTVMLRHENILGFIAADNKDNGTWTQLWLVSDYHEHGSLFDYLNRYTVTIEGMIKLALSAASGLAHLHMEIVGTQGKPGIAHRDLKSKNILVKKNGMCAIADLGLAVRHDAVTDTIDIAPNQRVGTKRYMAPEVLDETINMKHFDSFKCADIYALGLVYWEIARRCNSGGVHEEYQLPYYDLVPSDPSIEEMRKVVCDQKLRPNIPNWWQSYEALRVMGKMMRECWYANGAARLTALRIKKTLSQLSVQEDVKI
- METHOD DESCRIPTION: Kinase Profiling Assay
- Assay type: biochemical
- DETAILS: 100 μM peptide
MEASUREMENT LABEL: ALK4(h) % activity

- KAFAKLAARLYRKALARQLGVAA [MMI-0400]: 130%
- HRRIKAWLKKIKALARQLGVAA (Mammalian) [MMI-0500]: 81%
- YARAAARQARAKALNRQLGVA (Mammalian) [MMI-0200]: 152%
- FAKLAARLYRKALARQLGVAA [MMI-0300]: 140%
